- Read-out: flavin-containing dimethylaniline monooxygenases 3 (FMO3), FMO3 (gene 2328)
- runDescription: LTEA_HepaRG_FMO3: Life Technologies and Expression Analysis (LTEA) Assay for flavin-containing dimethylaniline monooxygenases 3 (FMO3) using HepaRG (AID 2283453);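 for AC50: differentiated human HepaRG liver cells in serum-free induction medium; FMO3 transcript by TaqMan qRT-PCR normalized to ACTB GAPDH and POLR2A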
- testContext: mRNA level, 48 h; actives raise or lower the signal
Activity calls are given as the source filed them. Rule for the calls: active = hit-call score of the fitted dose curve at least 0.9, where 1 is the maximum; inactive = score below 0.9.
valueKind: AC50

// known answers, use as guide
molecule	AC50
CC1(C(=O)Nc2ccc(O)c(Cl)c2Cl)CCCCC1	inactive
CON=C(C(=O)OC)c1ccccc1CON=C(C)c1cccc(C(F)(F)F)c1	inactive
CC(C1CC1)C(O)(Cn1cncn1)c1ccc(Cl)cc1 (configuration not stated)	77.7 µM (active)
CN(C)C(=O)Nc1cccc(C(F)(F)F)c1	inactive
N#CSCSC#N	83.2 µM (active)
CC(C)N(C(=O)SCC(Cl)=C(Cl)Cl)C(C)C	inactive
Cc1ccn2nc(S(=O)(=O)Nc3c(F)cccc3F)nc2n1	inactive
C[Si](Cn1cncn1)(c1ccc(F)cc1)c1ccc(F)cc1	37.5 µM (active)
C=C(C)[C@H]1Cc2c(ccc3c2O[C@@H]2COc4cc(OC)c(OC)cc4[C@@H]2C3=O)O1	5.89 µM (active)
COP(=O)(OC)SCn1c(=O)oc2cc(Cl)cnc21	inactive

[Q] # query: AC50 of entry CCCOCC(=Nc1ccc(Cl)cc1C(F)(F)F)n1ccnc1
[A] 73 µM (active)

[Q] Could you do the same for CNC(=O)ON=C(SC)C(=O)N(C)C , please?
[A] inactive

---

- Read-out: Lipase C (LIPC), LIPC (gene 3990)
- runDescription: LTEA_HepaRG_LIPC: Life Technologies and Expression Analysis (LTEA) Assay for Lipase C (LIPC) using HepaRG (AID 2283514)
- testContext: mRNA level, 48 h; actives raise or lower the signal
Activity calls are given as the source filed them. Rule for the calls: active = hit-call score of the fitted dose curve at least 0.9, where 1 is the maximum; inactive = score below 0.9.
Answer with one of the outcomes given here: T for active, F for inactive

compound	answerLabel
C#CC(C)(C)NC(=O)c1cc(Cl)cc(Cl)c1	F
CSc1nc(NC(C)C)nc(NC(C)C)n1	F
CCOC(=O)CC(SP(=O)(OC)OC)C(=O)OCC (stereo not drawn)	F
CCCSP(=O)(OCC)Oc1ccc(Br)cc1Cl (stereo not drawn)	F

[Q] Test call for this compound, please: CCCOc1nn(C(=O)NS(=O)(=O)c2ccccc2C(=O)OC)c(=O)n1C
[A] F

[Q] Could you do the same for CC(C)[C@H](C(=O)O[C@H](C#N)c1cccc(Oc2ccccc2)c1)c1ccc(Cl)cc1 , please?
[A] F

---

- runDescription: ATG_DR4_LXR_CIS: Attagene CIS-FACTORIAL HepG2 Assay for human Liver X Receptor (LXR), DR4 submotif (AID 2282929)
- testContext: HepG2 Attagene DR4 cis-reporter, mRNA transcription; actives raise or lower the signal
The source made the active and inactive calls. Rule for the calls: active = hit-call score of the fitted dose curve at least 0.9, where 1 is the maximum; inactive = score below 0.9.
Answer with one of the outcomes given here: 1 = active, -1 = inactive

Below, 5 molecules whose answers are already recorded.
molecule	answerLabel
CCOP(=S)(OCC)SCCSCC	-1
CCc1cnc(C2=NC(C)(C(C)C)C(=O)N2)c(C(=O)O)c1 (configuration not stated)	-1
N#CSCSC#N	-1
CCCSP(=O)(OCC)Oc1ccc(Br)cc1Cl (configuration not stated)	-1
CNC(=O)Oc1cccc2c1OC(C)(C)O2	-1

[Q] Test call for this molecule, please: COc1cccc(C(=O)NN(C(=O)c2cc(C)cc(C)c2)C(C)(C)C)c1C
[A] 1

[Q] Could you do the same for C=C(C)[C@H]1Cc2c(ccc3c2O[C@@H]2COc4cc(OC)c(OC)cc4[C@@H]2C3=O)O1 , please?
[A] -1

[Q] Could you do the same for CCCCOC(=O)[C@@H](C)Oc1ccc(Oc2ccc(C#N)cc2F)cc1 , please?
[A] -1

[Q] Could you do the same for COc1ccc(C(=CC(=O)N2CCOCC2)c2ccc(Cl)cc2)cc1OC , please?
[A] -1

[Q] Could you do the same for CC(C1CC1)C(O)(Cn1cncn1)c1ccc(Cl)cc1 (configuration not stated) , please?
[A] 1

[Q] Could you do the same for CCOC(=O)CC(SP(=O)(OC)OC)C(=O)OCC (configuration not stated) , please?
[A] -1

[Q] Could you do the same for COc1cc(OC)nc(Sc2cccc(Cl)c2C(=O)O)n1 , please?
[A] -1

---

- Read-out: ABC Transporter (ABCB1), ABCB1 (gene 5243)
- runDescription: CLD_ABCB1_48hr: CellzDirect (CLD) Gene Expression Assay for ABC Transporter (ABCB1) at 48 hours (AID 2283695)
Results filed as inconclusive are left out. Calls of active or inactive are those of the source. Rule for the calls: active = hit-call score of the fitted dose curve at least 0.9, where 1 is the maximum; inconclusive = response in the unintended direction; inactive = score below 0.9.
Answer with one of the outcomes given here: active, inactive

Below, 3 molecules whose answers are already recorded.
molecule	answerLabel
CC1=NNC(=O)N(/N=C/c2cccnc2)C1	inactive
CCOP(=S)(OCC)OC(Cl)C(Cl)(Cl)Cl (stereo not drawn)	inactive
CCc1cnc(C2=NC(C)(C(C)C)C(=O)N2)c(C(=O)O)c1 (stereo not drawn)	inactive

[Q] Test call for this molecule, please: COc1cc(OC)nc(Sc2cccc(Cl)c2C(=O)O)n1
[A] inactive

[Q] Could you do the same for CCOP(=S)(OCC)SCCSCC , please?
[A] inactive

[Q] Could you do the same for CN(C)NC(=O)CCC(=O)O , please?
[A] inactive

[Q] Could you do the same for CN(C)C(=O)Nc1cccc(C(F)(F)F)c1 , please?
[A] inactive

[Q] Could you do the same for CC(C)[C@H](C(=O)O[C@H](C#N)c1cccc(Oc2ccccc2)c1)c1ccc(Cl)cc1 , please?
[A] inactive

[Q] Could you do the same for CCOC(=O)COc1cc(-c2nn(C)c(OC(F)F)c2Cl)c(F)cc1Cl , please?
[A] inactive

[Q] Could you do the same for CCCCN(CC)c1c([N+](=O)[O-])cc(C(F)(F)F)cc1[N+](=O)[O-] , please?
[A] inactive

[Q] Could you do the same for CNc1cnn(-c2cccc(C(F)(F)F)c2)c(=O)c1Cl , please?
[A] inactive

[Q] Could you do the same for CCOP(=S)(Oc1cnc(C(C)(C)C)nc1)OC(C)C (stereo not drawn) , please?
[A] active

[Q] Could you do the same for CCOP(=O)(NC(C)C)Oc1ccc(SC)c(C)c1 (stereo not drawn) , please?
[A] inactive

[Q] Could you do the same for N#CSCSC#N , please?
[A] inactive

---

- runDescription: APR_HepG2_StressKinase_24hr: Apredica 24-hour HepG2 Assay for Stress Kinase (AID 2282922)
- testContext: HepG2 stress kinase (phospho-c-Jun) imaging, actives raise or lower the signal
Active and inactive are the calls of the source. The calls were made as follows: active = hit-call score of the fitted dose curve at least 0.9, where 1 is the maximum; inactive = score below 0.9.
Answer with one of the outcomes given here: active, inactive

compound	answerLabel
CCCCSP(=O)(SCCCC)SCCCC	inactive
CC1=NNC(=O)N(/N=C/c2cccnc2)C1	inactive
CCCCN(CC)c1c([N+](=O)[O-])cc(C(F)(F)F)cc1[N+](=O)[O-]	inactive
CNc1cnn(-c2cccc(C(F)(F)F)c2)c(=O)c1Cl	inactive

Then this compound:
[Q] Test call for this compound, please: CC(COc1ccc(Oc2ccccc2)cc1)Oc1ccccn1 (stereo not drawn)
[A] inactive

---

- Read-out: Macrophage colony-stimulating factor (MCSF), CSF1 (gene 1435)
- runDescription: BSK_LPS_MCSF: BioMAP Diversity Plus: LPS Assay for Macrophage colony-stimulating factor (MCSF) Biomarker Activity (AID 2283083)
- testContext: primary human HUVEC with PBMC; actives raise or lower the signal
Active and inactive are the calls of the source. How the source made its calls: active means hit-call score of the fitted dose curve at least 0.9, where 1 is the maximum; inactive means score below 0.9.
Answer with one of the outcomes given here: True for active, False for inactive

compound	answerLabel
C#CC(C)(C)NC(=O)c1cc(Cl)cc(Cl)c1	False
Nc1c(Cl)cc([N+](=O)[O-])cc1Cl	False
CCc1cnc(C2=NC(C)(C(C)C)C(=O)N2)c(C(=O)O)c1 (configuration not stated)	False
CCOP(=O)(NC(C)C)Oc1ccc(SC)c(C)c1 (configuration not stated)	False
CNC(=O)ON=C(SC)C(=O)N(C)C	False
C=C(C)[C@H]1Cc2c(ccc3c2O[C@@H]2COc4cc(OC)c(OC)cc4[C@@H]2C3=O)O1	True
CCOC(=O)CC(SP(=O)(OC)OC)C(=O)OCC (configuration not stated)	False
Cc1ccn2nc(S(=O)(=O)Nc3c(F)cccc3F)nc2n1	False
CCC(=NOC/C=C/Cl)C1=C(O)CC(C2CCOCC2)CC1=O (configuration not stated)	False
COP(=O)(OC)OC(Br)C(Cl)(Cl)Br (configuration not stated)	True

[Q] Test call for this compound, please: CCCSP(=O)(OCC)Oc1ccc(Br)cc1Cl (configuration not stated)
[A] False

[Q] Could you do the same for CCC(=O)Nc1ccc(Cl)c(Cl)c1 , please?
[A] False

---

- Read-out: Monokine induced gamma interferon (MIG), CXCL9 (gene 4283)
- runDescription: BSK_hDFCGF_MIG: BioMAP Diversity Plus: hDFCGF Assay for Monokine induced gamma interferon (MIG) Biomarker Activity (AID 2283063)
- testContext: primary human foreskin fibroblasts; actives raise or lower the signal
Active and inactive are the calls of the source. How the source made its calls: active means hit-call score of the fitted dose curve at least 0.9, where 1 is the maximum; inactive means score below 0.9.
Answer with one of the outcomes given here: active, inactive

Below, 5 compounds whose answers are already recorded.
compound	answerLabel
CNC(=O)ON=C(C)SC	inactive
CSc1nc(NC(C)C)nc(NC(C)C)n1	inactive
CC[C@H](C)[C@H]1O[C@]2(C=C[C@@H]1C)C[C@@H]1C[C@@H](C/C=C(\C)[C@@H](O[C@H]3C[C@H](OC)[C@@H](O[C@H]4C[C@H](OC)[C@@H](NC)[C@H](C)O4)[C@H](C)O3)[C@@H](C)/C=C/C=C3\CO[C@@H]4[C@H](O)C(C)=C[C@@H](C(=O)O1)[C@]34O)O2	active
COP(=O)(OC)C(O)C(Cl)(Cl)Cl (centres undefined)	inactive
CCOC(=O)CC(SP(=O)(OC)OC)C(=O)OCC (centres undefined)	inactive

[Q] Test call for this compound, please: CCCCN(CC)c1c([N+](=O)[O-])cc(C(F)(F)F)cc1[N+](=O)[O-]
[A] inactive

[Q] Could you do the same for N#CSCSC#N , please?
[A] active

[Q] Could you do the same for C=C(C)[C@H]1Cc2c(ccc3c2O[C@@H]2COc4cc(OC)c(OC)cc4[C@@H]2C3=O)O1 , please?
[A] inactive

[Q] Could you do the same for CCCCOC(=O)[C@@H](C)Oc1ccc(Oc2ccc(C#N)cc2F)cc1 , please?
[A] inactive
